- System: K562 CRISPRi cells
- run-description: Constant region variant library pooled growth screen, K562
- Format: cell-based, human
- conditions-used: sgRNA constant region variants; activity relative to the un-modified constant region cr995
property-label: Mean relative activity
Give bare numbers.

Return reported Mean relative activity; argument: cr409 (nucleic acid, listed as DNA, chemistry not fully specified) guide: GTTTAAGAGCTAAGCTGGAAAGAGCATAGCAAGTTTAAATAAGGCTAGTCCGTTATCAACTTGAAAAAGTGGCACCGAGTCGGTGCT
0.9158

// batch mode: one Mean relative activity value per listed entry
1. cr624 (nucleic acid, listed as DNA, chemistry not fully specified) guide: GTTTAAGAGCTAAGCTGGAAACAGCATAGCAAGTTTAAATAAGGCTAGTCCGTTGTCAACTTGAAAAAGTGGCACCGAGTCGGTGCT
2. cr251 (nucleic acid, listed as DNA, chemistry not fully specified) guide: GTTTAAGAGCTAAGCTGGAAACAGCATAGCAAGTTTAAATAAGGCTAGTCCGTGATCAACTTGTAAAAGTGGCACCGACTCGGTGCT
3. cr238 (nucleic acid, listed as DNA, chemistry not fully specified) guide: GTTTAAGAGCTAAGCTGGAAACAGCATAGCAAGTTTAAATAAGGCTAGTCCGTTATCAACTTGAAAAAGTGGCTTCGAGTCGAAGCT

[0.9799, 0.9836, 0.9809]
